Tested on: Mycobacterium tuberculosis
protocol_text: Antimycobacterial activity against multi-drug resistant Mycobacterium tuberculosis 234/2005 after 21 days
Assay type: functional
condition_info: 234/2005, 504 h
Assign MIC99 to each entry below.
Numbers only, in µM.

Reference set, count: 3
[
  {
    "given_smiles": "Cn1c(SCc2ccc(Cl)c(Cl)c2)nnc1-c1cc([N+](=O)[O-])cc([N+](=O)[O-])c1",
    "tgt": "Mycobacterium tuberculosis",
    "quantity_measured": "MIC99",
    "data_value": 0.06
  },
  {
    "given_smiles": "Cn1c(SCc2ccc(Cl)cc2)nnc1-c1cc([N+](=O)[O-])cc([N+](=O)[O-])c1",
    "tgt": "Mycobacterium tuberculosis",
    "quantity_measured": "MIC99",
    "data_value": 0.125
  },
  {
    "given_smiles": "O=[N+]([O-])c1cc(-c2nnc(SCc3ccc(Cl)c(Cl)c3)n2Cc2ccccc2)cc([N+](=O)[O-])c1",
    "tgt": "Mycobacterium tuberculosis",
    "quantity_measured": "MIC99",
    "data_value": 0.25
  }
]

// for each compound in input: emit MIC99
1. CCn1c(SCc2ccccc2)nnc1-c1cc([N+](=O)[O-])cc([N+](=O)[O-])c1
2. COc1ccc(Cn2c(SCc3cc([N+](=O)[O-])cc([N+](=O)[O-])c3)nnc2-c2ccccc2)cc1
3. COc1ccc(CSc2nnc(-c3cc([N+](=O)[O-])cc(C(F)(F)F)c3)n2Cc2ccccc2)cc1

# output
1. 0.03
2. 4
3. 2

---

Tested on: Mycobacterium tuberculosis
protocol_text: Antimycobacterial activity against multi-drug resistant Mycobacterium tuberculosis 8666/2010 after 14 days
Assay type: functional
condition_info: 8666/2010, 336 h
Assign MIC99 to each entry below.
Answers are plain numbers, in µM.

Reference set, count: 4
[
  {
    "given_smiles": "Cn1c(SCc2ccccc2)nnc1-c1cc([N+](=O)[O-])cc([N+](=O)[O-])c1",
    "units_of_measure": "µM",
    "MIC99": 0.03
  },
  {
    "given_smiles": "O=[N+]([O-])c1cc(CSc2nnc(C3CCCCC3)n2Cc2ccccc2)cc(C(F)(F)F)c1",
    "units_of_measure": "µM",
    "MIC99": 16
  },
  {
    "given_smiles": "CCn1c(SCc2ccccc2)nnc1-c1cc([N+](=O)[O-])cc([N+](=O)[O-])c1",
    "units_of_measure": "µM",
    "MIC99": 0.03
  },
  {
    "given_smiles": "Cn1c(SCc2ccc(Cl)cc2)nnc1-c1cc([N+](=O)[O-])cc([N+](=O)[O-])c1",
    "units_of_measure": "µM",
    "MIC99": 0.125
  }
]

Lab note: next compound to report on.
# input Reported MIC99, compound `O=[N+]([O-])c1cc(-c2nnc(SCc3ccc(Cl)cc3)n2Cc2ccccc2)cc([N+](=O)[O-])c1` : ____
# output 0.125

---

protocol_text: Selectivity index, ratio of IC50 for human HepG2 cells to MIC>99 for antimycobacterial activity against multi-drug resistant Mycobacterium tuberculosis Praha 1 after 21 days
Type: toxicity
condition_info: read-out: Selectivity Index
quantity_measured: selectivity ratio at 504 h

# input Reported selectivity ratio at 504 h, molecule `O=[N+]([O-])c1cc(-c2nnc(SCc3ccccc3)n2Cc2ccccc2)cc(C(F)(F)F)c1` : ____
# output > 100

Origin of values: ChEMBL document CHEMBL4373711
